Ref: PubChem BioAssay (NCI)

System: LOX IMVI melanoma
Test: NCI tumour cell line growth inhibition, 48 h
Listing of recorded TGI by entry.

COMPOUND	READING UNIT	MODIFIER	TGI
O=C(C#Cc1c[nH]c(=O)[nH]c1=O)c1ccccc1Cl	µM	=	26.7
C#CCNC(=O)NC(CCCNC(=O)OCc1ccccc1)C(=O)OCc1ccccc1 (centres undefined)	µM	>	100
CCSc1nnc(CSc2nc(-c3ccccc3)c(-c3ccccc3)[nH]2)n1-c1ccccc1	µM	=	43.8
CCOP(=O)(OCC)[C@H](O)c1ccsc1	µM	>	100
COc1ccc(-c2cc(-c3cc(Cl)ccc3Cl)nc3[nH]c(-c4cc(F)c(Cl)cc4Cl)cc(=O)c23)cc1	µM	=	34.4
Cc1ccccc1C(C#N)C(=O)C(=O)Nc1nc([N+](=O)[O-])cs1 (centres undefined)	µM	>	100
O=C1CC(=O)N(c2ccccc2)N1/C(=C/c1ccccc1)c1ccccc1	µM	=	3.06
CCOc1ccc(S(=O)(=O)/N=C2\C=C(SCC(=O)O)C(=O)c3ccccc32)cc1	µM	=	10.2
O=C(Nc1cccc(-n2ccc3c(NC(=O)c4ccccc4)nccc32)c1)c1cccc(C(F)(F)F)c1	µM	=	2.78
CCOC(=O)C1(CC)CCCCC(=O)N1 (centres undefined)	µM	>	100
Clc1nc(Cl)nc(NC23CC4CC(CC(C4)C2)C3)n1	µM	=	26.9
NC(N)=N/N=C(/c1ccccc1)c1ccc(F)cc1	µM	=	10.7
Cc1cn(C2C=CC(COP(=O)(OCC3=CC(=O)c4ccccc4C3=O)N(C)CCCCCl)O2)c(=O)[nH]c1=O (centres undefined)	µM	=	8.66
FC(F)(F)c1nc(-c2ccccc2Cl)[nH]c1C(F)(F)F	µM	=	1.23
CCCCCCCCCCCCC(=O)OC(c1cnco1)c1nc(C(O)CC(O)C(O)C(C)O)co1 (centres undefined)	µM	>	42.4
C=CCSC[C@H](NC(=O)COc1ccccc1)C(=O)NC(C(=O)OCc1ccc([N+](=O)[O-])cc1)=C(C)C	µM	>	100
NC(CO)Cc1cnc[nH]1 (centres undefined)	µM	>	100
CCN1CCN(c2nc(NCCCNc3ccnc4cc(Cl)ccc34)c3ccccc3n2)CC1	µM	=	3.13
Cn1cc(NC(=O)c2cc(NC(=O)CCCCCCCCCCC(=O)Nc3cc(C(=O)Nc4cc(C(=O)NCCC(=N)N)n(C)c4)n(C)c3)cn2C)cc1C(=O)NCCC(=N)N	µM	>	100
COC1(C(=O)N2Cc3nc(Cl)nc(N[C@H](C)c4cc(N)cc(C(F)(F)F)c4)c3C2)CCOCC1	µM	=	29.2
COc1ncc(C=C(C#N)C#N)c(OC)n1	µM	>	100
O=C1CC(c2ccco2)C2(C(=O)NC(=O)NC2=O)C(c2ccco2)C1 (centres undefined)	µM	>	75
O=[Se]([O-])c1ccccc1.O=[Se]([O-])c1ccccc1.[OH3+].[OH3+].[Pt+2]	µM	=	19.2
CCOC(=O)C(OCC1CC=CCC1)Sc1ccccc1 (centres undefined)	µM	>	100
Nc1nc(Cl)cc(NCC2(CO)CC(CCc3ccccc3)C2)n1 (centres undefined)	µM	>	100
N#Cc1c(NC(=S)NC(=O)c2ccccc2)nc2c(c1-c1ccccc1)CCC2	µM	>	100
C=CCN(CC=C)Cn1c(=S)sc2ccccc21	µM	=	47.1
COc1cc(-n2cc(-c3ccc(Cl)c(Cl)c3)nc2SCc2ccccc2)cc(OC)c1OC	µM	>	100
CC12CC(c3ccccc3O1)C(C(=O)Nc1ccc(F)cc1)C(=O)N2 (centres undefined)	µM	>	100
CO[C@@H](C(=O)OC1C=CC2(CC1)C(=O)N(C)c1ccccc12)c1ccccc1 (some centres undefined)	µM	>	100
CCC(=O)C(c1ccccc1)c1ccccn1 (centres undefined)	µM	>	100
Cc1ccc(-c2c(N)nc(NC#N)nc2CCC(=O)Nc2ccccc2[N+](=O)[O-])cc1	µM	>	100
Nc1n[nH]c2ccc([C@@H]3Nc4ccc5[nH]ncc5c4[C@H]4[C@H]5CCC(C5)[C@H]43)cc12	µM	=	14.5
Cc1ccc(N=Nc2c3c(c(O)c4ccccc24)CCC(C)(C)O3)cc1	µM	=	28.6
